src = patent US20150139990A1

# Assay Target: T1, human CD81 mutant G158S (human, UniProt P60033 1-236, limits assumed)
# T1 construct: as m30; not shown: C-terminal V5 and 6xHis tags
# T1 sequence: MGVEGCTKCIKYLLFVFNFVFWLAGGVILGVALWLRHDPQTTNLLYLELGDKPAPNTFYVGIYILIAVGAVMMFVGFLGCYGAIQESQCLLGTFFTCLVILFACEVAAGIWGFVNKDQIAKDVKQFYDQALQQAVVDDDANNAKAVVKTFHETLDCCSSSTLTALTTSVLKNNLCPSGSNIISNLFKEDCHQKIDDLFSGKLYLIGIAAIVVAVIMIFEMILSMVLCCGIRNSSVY
# Assay Summary: ELISA
Property: relative binding affinity

Dear colleague, I am looking for the recorded relative binding affinity of the following binder: 002-A07 N113Q (antibody, human IgG4 S228P, lambda, V domains shown, IgG4 S228P; glycosylation site mutant of 002-A07 VL) VH: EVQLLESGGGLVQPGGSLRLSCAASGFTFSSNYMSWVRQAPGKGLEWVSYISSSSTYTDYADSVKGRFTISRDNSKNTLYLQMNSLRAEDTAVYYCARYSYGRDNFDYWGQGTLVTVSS VL: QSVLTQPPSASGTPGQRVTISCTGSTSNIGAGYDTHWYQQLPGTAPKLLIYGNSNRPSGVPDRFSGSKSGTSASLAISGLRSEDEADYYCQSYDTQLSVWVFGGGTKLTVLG
< 20%

Next:
Dear colleague, I am looking for the recorded relative binding affinity of the following binder: 002-A07 S115A (antibody, human IgG4 S228P, lambda, V domains shown, IgG4 S228P; glycosylation site mutant of 002-A07 VL) VH: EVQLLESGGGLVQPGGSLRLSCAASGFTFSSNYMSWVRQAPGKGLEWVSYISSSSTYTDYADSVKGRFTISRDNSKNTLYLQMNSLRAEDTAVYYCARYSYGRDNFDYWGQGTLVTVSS VL: QSVLTQPPSASGTPGQRVTISCTGSTSNIGAGYDTHWYQQLPGTAPKLLIYGNSNRPSGVPDRFSGSKSGTSASLAISGLRSEDEADYYCQSYDTNLAVWVFGGGTKLTVLG
< 20%

Dear colleague, I am looking for the recorded relative binding affinity of the following binder: 003-D07 (antibody, human IgG4 S228P, lambda, V domains shown, IgG4 S228P) VH: EVQLLESGGGLVQPGGSLRLSCAASGFTFSSNYMSWVRQAPGKGLEWVSYISSSSTYTDYADSVKGRFTISRDNSKNTLYLQMNSLRAEDTAVYYCARYSYDRDNFDYWGQGTLVTVSS VL: QSVLTQPFSASGTPGQRVTISCTGSTSNIGAGYDTHWYQHLPGTAPKLLIYGNSNRPSGVPDRFSGSKSGTSASLAISGLRSEDEADYYCQSYDTNLSVWVFGGGTKLTVLG
< 20%
